# Test target: hNaV1.7 (Homo sapiens, UniProt Q15858)
# Construct: expressed in transfected cells; host or cells: HEK293
# Sequence (Q15858 whole entry): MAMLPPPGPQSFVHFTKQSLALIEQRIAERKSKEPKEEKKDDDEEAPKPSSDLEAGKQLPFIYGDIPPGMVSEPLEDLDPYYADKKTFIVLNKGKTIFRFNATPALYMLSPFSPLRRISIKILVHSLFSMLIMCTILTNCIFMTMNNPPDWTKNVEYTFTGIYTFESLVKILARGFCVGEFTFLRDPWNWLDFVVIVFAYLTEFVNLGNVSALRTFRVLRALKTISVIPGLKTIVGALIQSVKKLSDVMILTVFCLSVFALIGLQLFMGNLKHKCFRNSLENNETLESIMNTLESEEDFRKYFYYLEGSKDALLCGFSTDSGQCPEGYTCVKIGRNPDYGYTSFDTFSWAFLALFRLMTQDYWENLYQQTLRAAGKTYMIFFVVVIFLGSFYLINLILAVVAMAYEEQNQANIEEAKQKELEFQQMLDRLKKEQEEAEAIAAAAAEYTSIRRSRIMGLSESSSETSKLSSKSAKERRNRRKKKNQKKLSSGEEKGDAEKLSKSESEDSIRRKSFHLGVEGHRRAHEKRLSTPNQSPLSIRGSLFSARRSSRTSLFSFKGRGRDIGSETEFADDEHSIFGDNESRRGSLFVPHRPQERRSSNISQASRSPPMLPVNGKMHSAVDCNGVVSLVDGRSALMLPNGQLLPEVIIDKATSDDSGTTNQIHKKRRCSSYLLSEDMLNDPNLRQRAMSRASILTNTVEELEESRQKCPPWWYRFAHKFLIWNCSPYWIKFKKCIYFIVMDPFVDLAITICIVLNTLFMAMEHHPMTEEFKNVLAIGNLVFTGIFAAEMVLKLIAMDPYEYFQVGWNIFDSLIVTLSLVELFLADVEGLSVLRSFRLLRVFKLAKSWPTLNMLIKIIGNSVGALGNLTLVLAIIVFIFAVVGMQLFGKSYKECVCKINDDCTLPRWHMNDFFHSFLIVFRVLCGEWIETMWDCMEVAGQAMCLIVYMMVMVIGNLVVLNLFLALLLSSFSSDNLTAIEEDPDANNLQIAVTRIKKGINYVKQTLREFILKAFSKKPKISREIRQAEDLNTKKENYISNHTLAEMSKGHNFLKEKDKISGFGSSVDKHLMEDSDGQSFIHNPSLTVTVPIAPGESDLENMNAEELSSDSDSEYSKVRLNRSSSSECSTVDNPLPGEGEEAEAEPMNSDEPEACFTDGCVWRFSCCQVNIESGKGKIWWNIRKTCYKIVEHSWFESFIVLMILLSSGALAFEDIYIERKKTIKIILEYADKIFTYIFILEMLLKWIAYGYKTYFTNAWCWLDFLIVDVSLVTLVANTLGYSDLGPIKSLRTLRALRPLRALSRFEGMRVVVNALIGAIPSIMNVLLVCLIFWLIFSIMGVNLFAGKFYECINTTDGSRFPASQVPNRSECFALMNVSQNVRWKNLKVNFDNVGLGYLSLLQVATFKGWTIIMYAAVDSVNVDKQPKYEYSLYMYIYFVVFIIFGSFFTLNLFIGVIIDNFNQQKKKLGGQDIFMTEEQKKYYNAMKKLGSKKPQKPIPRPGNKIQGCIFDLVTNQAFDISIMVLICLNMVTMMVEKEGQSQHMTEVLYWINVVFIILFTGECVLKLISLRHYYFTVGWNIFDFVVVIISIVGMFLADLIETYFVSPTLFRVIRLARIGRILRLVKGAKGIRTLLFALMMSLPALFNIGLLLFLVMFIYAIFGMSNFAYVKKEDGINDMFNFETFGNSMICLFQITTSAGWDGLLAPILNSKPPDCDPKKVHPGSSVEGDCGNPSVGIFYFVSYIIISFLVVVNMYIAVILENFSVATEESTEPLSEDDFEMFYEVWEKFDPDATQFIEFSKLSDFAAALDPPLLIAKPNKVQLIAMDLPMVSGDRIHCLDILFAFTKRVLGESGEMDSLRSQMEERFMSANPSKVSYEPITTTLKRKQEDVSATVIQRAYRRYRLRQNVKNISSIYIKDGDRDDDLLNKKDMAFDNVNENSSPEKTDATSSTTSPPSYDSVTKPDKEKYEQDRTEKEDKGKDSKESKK
# Test summary: QPatch NaV1.7 assay
# Format: cell-based
# Study conditions: HEK293-hNaV1.7 cells, QPatch16x; holding voltage −90 mV, where most of the channels are in a closed state; read-out: QP Nav1.7 - 90 mV pIC50 (converted)
Where a name gives a salt, the structure may show the parent alone.
Quantity measured: IC50 (µM)

Below, 3 compounds whose answers are already recorded.
Cc1cc(-c2cc(OC(F)(F)F)ccc2F)nc([C@@H]2CC[C@@]3(CCN(C)C3=O)N2)n1 [Example 31, hydrochloride] | 100
Cc1cc(-c2cc(OC(F)(F)F)ccc2F)nc([C@H]2CC[C@@]3(CCN(C)C3=O)N2)n1 [Example 32, hydrochloride] | 39.8
CCOc1ccc(F)c(-c2cc(C)nc([C@H]3CC[C@@]4(CCCNC4=O)N3)n2)c1 [Example 37, hydrochloride] | 15.8

1 = CN1CC[C@@]2(CC[C@@H](c3nccc(-c4cccc(OC(F)(F)F)c4)n3)N2)C1=O [Example 19, hydrochloride]
2 = CCOc1ccc(F)c(-c2ccnc([C@H]3CC[C@]4(CCN(C)C4=O)N3)n2)c1 [Example 14, hydrochloride]
IC50 comparison. Which is larger, 1 or 2 ? In your reply, give the label of the chosen option.
1
(1: 200 µM, 2: 20 µM)

---

# Test target: hNaV1.7 (Homo sapiens)
# Construct: expressed in transfected cells; host or cells: HEK293
# Test summary: QPatch NaV1.7 assay
# Assay type: cell-based
# Study conditions: HEK293-hNaV1.7 cells, QPatch16x; holding voltage −90 mV, where most of the channels are in a closed state; read-out: QP Nav1.7 - 90 mV pIC50 (converted)
Counter-ions that a name gives are not always drawn.
Quantity measured: IC50 (µM)

CCOc1ccc(F)c(-c2ccnc([C@@H]3CC[C@@]4(CCN(C)C4=O)N3)n2)c1 [Example 16, hydrochloride] | 126
CCOc1ccc(F)c(-c2cc(C)nc([C@H]3CC[C@@]4(CCN(C)C4=O)N3)n2)c1 [Example 10, hydrochloride] | 20
CCOc1ccc(F)c(-c2cc(C)nc([C@@H]3CC[C@@]4(CCN(C)C4=O)N3)n2)c1 [Example 11, hydrochloride] | 79.4

A = Cc1cc(-c2ccc(C(F)(F)F)cc2)nc([C@H]2CC[C@]3(CCN(C)C3=O)N2)n1 [Example 6, hydrochloride]
B = Cc1cc(-c2ccc(C(F)(F)F)cc2)nc([C@@H]2CC[C@]3(CC(C)(C)NC3=O)N2)n1 [Example 45, hydrochloride]
Dear colleague, could you let me know whether A or B has the lower recorded IC50? Thanks. In your reply, give the label of the chosen option.
B

a = CCOc1ccc(F)c(-c2ccnc([C@H]3CC[C@@]4(CCN(C)C4=O)N3)n2)c1 [Example 17, hydrochloride]
b = CN1CC[C@]2(CC[C@H](c3nccc(-c4ccc(C(F)(F)F)cc4)n3)N2)C1=O [Example 4, hydrochloride]
IC50 comparison. Which is larger, a or b ? In your reply, give the label of the chosen option.
b
(b: 251 µM, a: 63.1 µM)

---

# Test target: hNaV1.7 (Homo sapiens, UniProt Q15858)
# Construct: expressed in transfected cells; host or cells: HEK293
# Test summary: QPatch NaV1.7 assay
# Type: cell-based
# Study conditions: HEK293-hNaV1.7 cells, QPatch16x; holding voltage V1/2 SSI, where half of the channels are inactivated; read-out: QP Nav1.7 SSI vhalf pIC50 (converted)
Counter-ions that a name gives are not always drawn.
Quantity measured: IC50 (µM)

Cc1cc(-c2ccc(C(F)(F)F)cc2)nc([C@H]2CC[C@@]3(CCNC3=O)N2)n1 [Example 39, hydrochloride] | 15.8
CN1CC[C@]2(CC[C@H](c3nccc(-c4ccc(C(F)(F)F)cc4)n3)N2)C1=O [Example 4, hydrochloride] | 39.8
CCOc1ccc(F)c(-c2cc(C)nc([C@H]3CC[C@@]4(CCN(C)C4=O)N3)n2)c1 [Example 10, hydrochloride] | 1.58
Cc1cc(-c2ccc(OC(F)(F)F)cc2)nc([C@@H]2CC[C@]3(CCN(C)C3=O)N2)n1 [Example 29, hydrochloride] | 12.6
CCOc1ccc(F)c(-c2cc(C)nc([C@@H]3CC[C@]4(CCN(C)C4=O)N3)n2)c1 [Example 8, hydrochloride] | 2.51
CN1CC[C@]2(CC[C@@H](c3nccc(-c4ccc(C(F)(F)F)cc4)n3)N2)C1=O [Example 3, hydrochloride] | 31.6
Cc1cc(-c2ccc(C(F)(F)F)cc2)nc([C@H]2CC[C@@]3(CC(C)(C)NC3=O)N2)n1 [Example 43, hydrochloride] | 5.01
CN1CC[C@@]2(CC[C@H](c3nccc(-c4ccc(C(F)(F)F)cc4)n3)N2)C1=O [Example 1, hydrochloride] | 10
CN1CC[C@@]2(CC[C@H](c3nccc(-c4cccc(OC(F)(F)F)c4)n3)N2)C1=O [Example 18, hydrochloride] | 12.6
Cc1cc(-c2ccc(OC(F)(F)F)cc2)nc([C@@H]2CC[C@@]3(CCN(C)C3=O)N2)n1 [Example 28, hydrochloride] | 50.1

1 = CCOc1ccc(F)c(-c2ccnc([C@@H]3CC[C@@]4(CCN(C)C4=O)N3)n2)c1 [Example 16, hydrochloride]
2 = Cc1cc(-c2ccc(C(F)(F)F)cc2)nc([C@@H]2CC[C@]3(CCNC3=O)N2)n1 [Example 40, hydrochloride]
IC50 comparison. Which is larger, 1 or 2 ? In your reply, give the label of the chosen option.
2
(2: 31.6 µM, 1: 12.6 µM)

A = CCOc1ccc(F)c(-c2cc(C)nc([C@H]3CC[C@]4(CCCNC4=O)N3)n2)c1 [Example 12, hydrochloride]
B = Cc1cc(-c2ccc(OC(F)(F)F)cc2)nc([C@H]2CC[C@@]3(CCN(C)C3=O)N2)n1 [Example 27, hydrochloride]
C = CN1CC[C@@]2(CC[C@@H](c3nccc(-c4ccc(C(F)(F)F)cc4)n3)N2)C1=O [Example 2, hydrochloride]
D = Cc1cc(-c2ccc(C(F)(F)F)cc2)nc([C@H]2CC[C@]3(CC(C)(C)NC3=O)N2)n1 [Example 46, hydrochloride]
Ordering criterion: IC50; begin with the maximum. Returns: the labels arranged in the requested order.
C, B, D, A

A = CCOc1ccc(F)c(-c2cc(C)nc([C@H]3CC[C@]4(CCN(C)C4=O)N3)n2)c1 [Example 9, hydrochloride]
B = CC(C)Oc1ccc(-c2ccnc([C@H]3CC[C@]4(CCN(C)C4=O)N3)n2)cc1 [Example 23, hydrochloride]
C = CN1CC[C@]2(CC[C@H](c3nccc(-c4cccc(OC(F)(F)F)c4)n3)N2)C1=O [Example 21, hydrochloride]
D = CCOc1ccc(F)c(-c2cc(C)nc([C@@H]3CC[C@@]4(CCCNC4=O)N3)n2)c1 [Example 38, hydrochloride]
Ordering criterion: IC50; begin with the maximum. Returns: the labels arranged in the requested order.
B, C, D, A
(B: 63.1 µM, C: 15.8 µM, D: 3.16 µM, A: 1.58 µM)
